Quick reference for kon among some binders
subject-of-test: T1, recombinant human IGF-II (Insulin-like Growth Factor II) (human, UniProt P01344 25-91, biotinylated (Biotinyl-IGF-II, GroPep) where immobilised in SPR, site not stated; not biotinylated in ITC and as SPR analyte)
T1 construct: also called IGF2; IGF-2
protocol-details: SPR, IGF-II immobilised, kinetic fit

| binder | units | kon |
| --- | --- | --- |
| IGF2R domain 11 with phenylalanine at position 1544 (E1544F) (receptor) NEHDDCQVTNPSTGHLFDLSSLSGRAGFTAAYSFKGLVYMSICGENENCPPGVGACFGQTRISVGKANKRLRYVDQVLQLVYKDGSPCPSKSGLSYKSVISFVCRPEAGPTNRPMLISLDKQTCTLFFSWHTPLACEQATHHHHHH | M⁻¹ s⁻¹ | 1.14e+06 |
| IGF2R domain 11 E1544V (amino acids 1511-1650, C-terminal His6 tag, from Pichia pastoris) (receptor) NEHDDCQVTNPSTGHLFDLSSLSGRAGFTAAYSVKGLVYMSICGENENCPPGVGACFGQTRISVGKANKRLRYVDQVLQLVYKDGSPCPSKSGLSYKSVISFVCRPEAGPTNRPMLISLDKQTCTLFFSWHTPLACEQATHHHHHH | M⁻¹ s⁻¹ | 1.12e+06 |
